Value source: ChEMBL document CHEMBL1949635

molecular target: Prostaglandin D2 receptor (Homo sapiens); experiment: Displacement of [3H]-PGD2 from human Prostanoid DP receptor expressed in human HEK293 cells by scintillation counter in presence of 0.5% bovine serum albumin; type: cell-based
Sequence (Q13258 whole entry): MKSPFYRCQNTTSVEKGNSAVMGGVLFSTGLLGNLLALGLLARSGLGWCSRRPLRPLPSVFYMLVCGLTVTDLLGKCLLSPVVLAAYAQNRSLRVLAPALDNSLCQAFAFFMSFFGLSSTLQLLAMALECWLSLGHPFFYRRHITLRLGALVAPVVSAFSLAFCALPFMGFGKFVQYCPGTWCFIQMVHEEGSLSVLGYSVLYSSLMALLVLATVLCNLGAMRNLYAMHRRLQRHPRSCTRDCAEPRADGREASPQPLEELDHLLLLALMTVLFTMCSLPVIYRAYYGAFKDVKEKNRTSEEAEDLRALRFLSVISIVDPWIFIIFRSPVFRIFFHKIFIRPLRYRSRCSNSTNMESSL
ENDPOINT LABEL: IC50 (µM)

| COMPOUND | UNIT LABEL | IC50 |
| --- | --- | --- |
| O=C(O)Cc1cc(F)c(Oc2ccc(C(=O)NC3CCC3)cc2NS(=O)(=O)c2ccc(C(F)(F)F)cc2Cl)cc1F | µM | 0.009 |

(a) CC(C)(C)NC(=O)c1ccc(Oc2ccc(CC(=O)O)cc2Cl)c(NS(=O)(=O)c2ccc(Cl)cc2Cl)c1
(b) CC(C)(C)NC(=O)c1ccc(Oc2cc(F)c(CC(=O)O)cc2Cl)c(NS(=O)(=O)c2ccc(C3CC3)cc2Cl)c1 [VIDUPIPRANT]
Which item exceeds the other in IC50, a or b ? I would appreciate it if you answered with the label of your choice. a

(A) CCCCNC(=O)c1ccc(Oc2ccc(CC(=O)O)cc2OC)c(NS(=O)(=O)c2ccc(C(F)(F)F)cc2Cl)c1
(B) CC(C)(C)NC(=O)c1ccc(Oc2ccc(CC(=O)O)cc2Cl)c(NS(=O)(=O)c2ccc(Cl)cc2)c1
(C) O=C(O)Cc1ccc(Oc2ccc(C(=O)NC3CCC3)cc2NS(=O)(=O)c2ccc(Cl)cc2Cl)c(Cl)c1
(D) CCCCNC(=O)c1ccc(Oc2ccc(CC(=O)O)cc2OC)c(NS(=O)(=O)c2cccc(Cl)c2Cl)c1
Arrange the 4 compounds from largest to smallest IC50. Put the labels in the requested order and list them out. D, B, A, C
(D: 0.52 µM, B: 0.046 µM, A: 0.021 µM, C: 0.009 µM)

---

assay: Volume of distribution at steady state in cynomolgus monkey; format: ADME, organism-based, Macaca fascicularis; conditions: in vivo, read-out: Vdss
ENDPOINT LABEL: Vd (L/kg)
Response body: numeric value in L/kg, unit text excluded.

Fill blank: measured Vd of the compound CC(C)(C)NC(=O)c1ccc(Oc2cc(F)c(CC(=O)O)cc2Cl)c(NS(=O)(=O)c2ccc(C3CC3)cc2Cl)c1 is ____. 0.97

---

test: Volume of distribution at steady state in dog; type: ADME, organism-based, Canis lupus familiaris; conditions: in vivo, read-out: Vdss
ENDPOINT LABEL: Vd (L/kg)
Response body: numeric value in L/kg, unit text excluded.

Fill blank: measured Vd of the molecule CC(C)(C)NC(=O)c1ccc(Oc2cc(F)c(CC(=O)O)cc2Cl)c(NS(=O)(=O)c2ccc(C3CC3)cc2Cl)c1 is ____. 2.72

---

experiment: Mean residence time in cynomolgus monkey; type: ADME, organism-based, Macaca fascicularis; conditions: in vivo
ENDPOINT LABEL: MRT (h)
Response body: numeric value in h, unit text excluded.

Fill blank: measured MRT of the compound CC(C)(C)NC(=O)c1ccc(Oc2cc(F)c(CC(=O)O)cc2Cl)c(NS(=O)(=O)c2ccc(C3CC3)cc2Cl)c1 [VIDUPIPRANT] is ____. 1

---

biological target: Prostaglandin D2 receptor 2 (Homo sapiens, UniProt Q9Y5Y4); assay: Displacement of [3H]-PGD2 from human CRTH2 receptor expressed in human HEK293 cells by scintillation counter in presence of 50% human plasma; assay type: cell-based
Sequence (Q9Y5Y4 whole entry): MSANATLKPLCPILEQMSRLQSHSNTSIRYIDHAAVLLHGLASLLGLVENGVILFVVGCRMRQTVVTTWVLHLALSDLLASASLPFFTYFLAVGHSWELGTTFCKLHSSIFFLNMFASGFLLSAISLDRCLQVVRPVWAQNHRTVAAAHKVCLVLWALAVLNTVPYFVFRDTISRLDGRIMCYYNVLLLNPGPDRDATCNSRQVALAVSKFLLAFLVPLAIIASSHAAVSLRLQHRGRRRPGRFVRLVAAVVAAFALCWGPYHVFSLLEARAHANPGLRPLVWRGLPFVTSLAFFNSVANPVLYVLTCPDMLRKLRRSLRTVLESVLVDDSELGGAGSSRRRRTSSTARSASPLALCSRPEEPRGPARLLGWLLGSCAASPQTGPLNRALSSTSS
ENDPOINT LABEL: IC50 (µM)

| SMILES ENTRY | ENDPOINT LABEL | UNIT LABEL | MEAS VALUE |
| --- | --- | --- | --- |
| O=C(O)Cc1ccc(Oc2ccc(C(=O)NC3CC3)cc2NS(=O)(=O)c2ccc(Cl)cc2Cl)c(Cl)c1 | IC50 | µM | 0.025 |
| O=C(O)Cc1cc(Cl)c(Oc2ccc(C(=O)NC3CCC3)cc2NS(=O)(=O)c2ccc(OC(F)(F)F)cc2Cl)cc1F | IC50 | µM | 0.008 |
| CCCCNC(=O)c1ccc(Oc2ccc(CC(=O)O)cc2C#N)c(NS(=O)(=O)c2ccc(Cl)cc2Cl)c1 | IC50 | µM | 0.21 |
| O=C(O)Cc1cc(F)c(Oc2ccc(C(=O)NC3CCC3)cc2NS(=O)(=O)c2ccc(C(F)(F)F)cc2Cl)cc1F | IC50 | µM | 0.041 |
| CCCCNC(=O)c1ccc(Oc2ccc(CC(=O)O)cc2C)c(NS(=O)(=O)c2ccc(Cl)cc2Cl)c1 | IC50 | µM | 0.026 |

(a) CC(C)(C)NC(=O)c1ccc(Oc2ccc(CC(=O)O)cc2Cl)c(NS(=O)(=O)c2ccc(Cl)cc2)c1
(b) CCCCNC(=O)c1ccc(Oc2ccc(CC(=O)O)cc2Cl)c(NS(=O)(=O)c2ccc(Cl)cc2Cl)c1
Looking at recorded values for IC50, does a or b come in lower? I would appreciate it if you answered with the label of your choice. a
